System: Plasmodium falciparum
assay method text: Screen against P. falciparum Asexual Blood Stage (ABS), at 5uM
Type: functional, Dd2
test settings: tested at 5 uM
The campaign covered roughly 65,000 compounds. About 2,100 (3.2%) showed an effect of 50% or more. The median lay at about -52%. The entries come from a sample that favours strong results as a whole.
metric: INHIBITION (%)
# unit: % | format: bare number

// INHIBITION lookup, key: NC(=O)c1c(-c2ccc(Cl)cc2Cl)csc1NC(=O)CCCC(=O)O
-162

Which value of INHIBITION has been reported for OC1(CN2CCCCC2)CCN(c2ccc(C(F)(F)F)cn2)C1 (centres undefined) in the records?
53.5

Item under review: CO[C@H]1C[C@@H](O)C12CCN(C(=O)CCCOc1ccccc1)CC2 . Reported INHIBITION?
-224

Bench note: what INHIBITION did CCC1c2ccccc2CCN1CCCS(C)(=O)=O (centres undefined) show?
-4.08

Would you kindly share the measured INHIBITION for COc1cc2c(cc1CNC(=O)C(C)n1ccnc1C(C)C)OCCO2 (centres undefined) ?
11.4

What value of INHIBITION has been reported for the following compound? CN1CC2(CCCN(c3nc(N)nc4c3CCCC4)C2)OC1=O (centres undefined)
-29.7

If you can, please state the reported INHIBITION value of Cc1ccnc(NCCCN2CCc3ccccc32)n1 .
19.8

Look up INHIBITION for this compound: Cn1ccnc1CN1CCC2(CC1)COCCN(c1ncccn1)C2
-9.16

# lookup: INHIBITION of CC(C)c1nnc(CN2CCc3ccc(S(N)(=O)=O)cc32)o1
-105

Find the recorded INHIBITION belonging to Cc1csc(CN2CC[C@H]3O[C@H](C(=O)Nc4cccnc4)CC[C@H]32)n1 and report it.
-18.1

Entry CCN(CC1CN(Cc2cccc(C#N)c2)CCO1)c1cccnn1 (centres undefined) : reported INHIBITION = ?
-83.6

Find the recorded INHIBITION belonging to CN1CCCc2c1nc1c(c2N)CCC1 and report it.
-49.7

Fill blank: measured INHIBITION of the compound Cc1ccc(C(=O)N2CCc3ncnc(-c4cnn(C)c4)c3CC2)o1 is ____.
-34.2

Quick one: INHIBITION for Cc1cc(-c2cccc3c2CCNC3)cnc1-n1cnnc1 ?
-24.9

State the recorded INHIBITION for this entry: CCCn1ccnc1CN1CCCC(O)(CN(C)C)CC1 (centres undefined)
-44.8

Which INHIBITION is listed for CN1CCCCc2c1nc1c(c2N)CCCC1 ?
63.8

Entry under review: CN(C)S(=O)(=O)N1CCC(Oc2cccnn2)CC1 . Reported INHIBITION?
-57.2

Entry O=C(CCc1ccsc1)N1CCCC(n2cncn2)C1 (centres undefined) has what INHIBITION?
-152

What does the record list as INHIBITION for c1cc(CNCc2ccc(-n3cncn3)nc2)cc(OC2CCCC2)c1 ?
-6.1

Which INHIBITION reading was recorded for the compound Cc1nc(-n2cnnc2)ccc1-c1cccc2c1CCNC2 ?
68.7

Need INHIBITION, item COc1ccc2c(c1)C(=O)NC1(CC2)CCN(Cc2ccncc2)C1 (centres undefined)
-28.2

What measured INHIBITION goes with COc1ccc2c(c1)C(=O)NC1(CC2)CCN(Cc2ccc(F)cc2)C1 (centres undefined) ?
66.7

Entry COc1ccc2c(c1)C(=O)NC1(CC2)CCN(Cc2ccccn2)C1 (centres undefined) : reported INHIBITION = ?
-30.5

Would you mind telling me what INHIBITION value was observed for O=C(c1c[nH]cn1)N1CCC(F)(F)C2(CCN(c3cnccn3)C2)C1 (centres undefined) ?
-94.9
